measured on: NMDAR2A expressing HEK cell membranes (Homo sapiens, UniProt Q05586+Q12879)
Construct: expressed in transfected cells; host or cells: HEK cells (membrane extract)
Sequence (Q12879 23-1464, other chains not shown): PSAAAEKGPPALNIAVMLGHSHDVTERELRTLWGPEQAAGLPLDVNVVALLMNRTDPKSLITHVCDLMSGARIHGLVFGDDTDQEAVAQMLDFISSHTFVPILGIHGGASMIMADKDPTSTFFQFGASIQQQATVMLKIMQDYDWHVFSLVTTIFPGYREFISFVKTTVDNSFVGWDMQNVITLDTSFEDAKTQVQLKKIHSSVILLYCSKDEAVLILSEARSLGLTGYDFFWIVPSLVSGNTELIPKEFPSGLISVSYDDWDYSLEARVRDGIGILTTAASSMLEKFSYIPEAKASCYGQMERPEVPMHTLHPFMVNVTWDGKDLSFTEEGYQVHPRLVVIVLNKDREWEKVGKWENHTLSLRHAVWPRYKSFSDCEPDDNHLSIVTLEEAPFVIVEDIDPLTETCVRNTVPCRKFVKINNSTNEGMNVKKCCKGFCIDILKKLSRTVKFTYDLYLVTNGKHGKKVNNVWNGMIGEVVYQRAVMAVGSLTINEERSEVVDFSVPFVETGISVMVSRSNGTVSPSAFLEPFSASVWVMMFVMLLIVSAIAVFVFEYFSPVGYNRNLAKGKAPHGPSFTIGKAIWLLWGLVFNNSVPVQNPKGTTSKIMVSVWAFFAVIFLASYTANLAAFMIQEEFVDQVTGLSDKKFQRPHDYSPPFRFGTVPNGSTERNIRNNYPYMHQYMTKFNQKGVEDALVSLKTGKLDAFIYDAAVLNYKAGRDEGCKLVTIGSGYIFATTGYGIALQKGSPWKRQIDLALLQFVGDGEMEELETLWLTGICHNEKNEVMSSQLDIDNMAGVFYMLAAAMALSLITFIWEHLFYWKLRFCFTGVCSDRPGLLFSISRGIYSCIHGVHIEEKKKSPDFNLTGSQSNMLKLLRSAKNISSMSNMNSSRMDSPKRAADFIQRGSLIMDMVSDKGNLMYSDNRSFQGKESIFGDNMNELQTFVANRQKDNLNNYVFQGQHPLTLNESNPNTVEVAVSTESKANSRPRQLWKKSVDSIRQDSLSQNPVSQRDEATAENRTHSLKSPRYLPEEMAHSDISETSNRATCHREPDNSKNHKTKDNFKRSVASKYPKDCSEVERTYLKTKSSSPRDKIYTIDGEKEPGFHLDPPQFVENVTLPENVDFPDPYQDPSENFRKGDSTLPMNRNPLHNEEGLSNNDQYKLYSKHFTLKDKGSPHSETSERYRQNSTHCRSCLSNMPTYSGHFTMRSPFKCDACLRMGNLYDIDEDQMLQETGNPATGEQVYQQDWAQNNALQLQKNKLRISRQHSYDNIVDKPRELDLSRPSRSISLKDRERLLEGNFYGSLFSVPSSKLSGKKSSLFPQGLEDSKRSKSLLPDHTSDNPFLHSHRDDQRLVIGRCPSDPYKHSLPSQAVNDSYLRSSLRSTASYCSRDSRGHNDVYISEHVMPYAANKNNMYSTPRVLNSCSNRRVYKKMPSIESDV
assay procedure: NMDAR agonist assay, [3H]MK-801 binding, NMDAR2A
Type: biochemical
condition description: 50 μM glutamate; [3H]MK-801 binding; read-out: NMDAR2A: log EC50 (converted)

compound	measured on	EC50
CC(C)C(=O)N1C(C(=O)N[C@H](C(N)=O)[C@@H](C)O)CCC12CNC2=O (single isomer, unassigned) [AR]	NMDAR2A expressing HEK cell membranes (Homo sapiens, UniProt Q05586+Q12879)	> 100 nM
CNC(=O)C(NCC1CCC2(CNC2=O)N1)C(C)O (single isomer, unassigned) [CQ]	NMDAR2A expressing HEK cell membranes (Homo sapiens, UniProt Q05586+Q12879)	> 100 nM
CC(O)C(C(N)=O)N(C)CC1CCC2(CN(OCc3ccccc3)C2=O)N1 (single isomer, unassigned) [CT]	NMDAR2A expressing HEK cell membranes (Homo sapiens, UniProt Q05586+Q12879)	< 1 nM
CC(C)CN1C(C(=O)N[C@H](C(N)=O)[C@@H](C)O)CCC12CNC2=O (single isomer, unassigned)	NMDAR2A expressing HEK cell membranes (Homo sapiens, UniProt Q05586+Q12879)	< 1 nM
CC(C)(C)OC(=O)N1CC2(CN(OCc3ccccc3)C2=O)CC12CN(OCc1ccccc1)C2=O (single isomer, unassigned) [AX]	NMDAR2A expressing HEK cell membranes (Homo sapiens, UniProt Q05586+Q12879)	< 1 nM
CC(C)C(=O)N1C(C(=O)N[C@H](C(N)=O)[C@@H](C)O)CCC12CNC2=O (single isomer, unassigned) [AS]	NMDAR2A expressing HEK cell membranes (Homo sapiens, UniProt Q05586+Q12879)	< 1 nM
CNC(=O)C(NCC1CCC2(CNC2=O)N1)C(C)O (single isomer, unassigned) [CR]	NMDAR2A expressing HEK cell membranes (Homo sapiens, UniProt Q05586+Q12879)	< 1 nM

meta.source: patent US11028095B2
